Where do the numbers come from? From paper PMC6815936.

# Experimental system: BSEP (Homo sapiens)
# Sequence (O95342 whole entry): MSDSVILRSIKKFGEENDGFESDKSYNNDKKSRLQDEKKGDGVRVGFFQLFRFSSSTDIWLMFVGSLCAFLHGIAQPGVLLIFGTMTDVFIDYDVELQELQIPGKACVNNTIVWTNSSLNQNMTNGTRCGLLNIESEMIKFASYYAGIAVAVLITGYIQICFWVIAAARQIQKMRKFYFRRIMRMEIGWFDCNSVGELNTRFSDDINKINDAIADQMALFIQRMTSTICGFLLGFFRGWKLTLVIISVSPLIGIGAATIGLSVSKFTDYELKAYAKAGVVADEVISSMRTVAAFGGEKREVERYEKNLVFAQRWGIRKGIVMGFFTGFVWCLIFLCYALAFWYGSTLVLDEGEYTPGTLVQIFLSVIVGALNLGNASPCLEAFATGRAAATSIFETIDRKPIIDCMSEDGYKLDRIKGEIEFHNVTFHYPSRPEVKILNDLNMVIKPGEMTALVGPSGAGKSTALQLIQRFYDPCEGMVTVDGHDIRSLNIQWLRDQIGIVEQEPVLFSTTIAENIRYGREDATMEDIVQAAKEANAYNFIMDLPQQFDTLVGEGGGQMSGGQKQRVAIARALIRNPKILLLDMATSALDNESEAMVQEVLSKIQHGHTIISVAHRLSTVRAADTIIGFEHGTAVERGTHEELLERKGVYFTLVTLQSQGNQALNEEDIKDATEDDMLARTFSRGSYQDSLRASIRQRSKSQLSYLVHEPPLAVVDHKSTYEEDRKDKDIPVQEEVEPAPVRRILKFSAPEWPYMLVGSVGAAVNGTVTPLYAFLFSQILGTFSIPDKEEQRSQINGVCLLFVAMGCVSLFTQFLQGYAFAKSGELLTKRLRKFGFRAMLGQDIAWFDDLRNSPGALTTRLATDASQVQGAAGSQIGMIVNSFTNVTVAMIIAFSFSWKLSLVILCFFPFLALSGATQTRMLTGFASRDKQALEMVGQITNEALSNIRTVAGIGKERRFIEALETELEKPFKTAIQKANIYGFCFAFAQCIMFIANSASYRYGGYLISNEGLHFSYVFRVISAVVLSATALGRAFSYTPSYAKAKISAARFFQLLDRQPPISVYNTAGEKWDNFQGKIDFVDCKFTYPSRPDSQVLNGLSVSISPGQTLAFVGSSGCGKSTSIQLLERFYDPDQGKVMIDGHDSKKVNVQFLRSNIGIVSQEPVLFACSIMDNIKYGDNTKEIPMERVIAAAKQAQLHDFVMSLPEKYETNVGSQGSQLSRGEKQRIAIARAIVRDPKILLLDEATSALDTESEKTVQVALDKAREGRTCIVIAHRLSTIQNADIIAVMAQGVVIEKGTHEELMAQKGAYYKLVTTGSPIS
Square brackets hold non-standard residues; d marks the D form. Peptide text beside a SMILES is read from it. NMeThr(4R-Me,4-(CH2)6NHAc) = CN[C@H](C(=O)O)[C@H](O)[C@H](C)CCCCCCNC(C)=O; NMeL = CN[C@@H](CC(C)C)C(=O)O; NMeV = CN[C@H](C(=O)O)C(C)C; dNMeA = CN[C@H](C)C(=O)O; Abu = CC[C@H](N)C(=O)O
Measurement type: IC50 (nM)
Answers are plain numbers, in nM.

Enquiry: Return reported IC50 for target or system BSEP (Homo sapiens), item CC[C@@H]1NC(=O)[C@H]([C@H](O)[C@H](C)CCCCCCNC(C)=O)N(C)C(=O)[C@H](C(C)C)N(C)C(=O)[C@H](CC(C)C)N(C)C(=O)[C@H](CC(C)C)N(C)C(=O)[C@@H](C)NC(=O)[C@H](C)NC(=O)[C@H](CC(C)C)N(C)C(=O)[C@H](C(C)C)NC(=O)[C@H](CC(C)C)N(C)C(=O)[C@@H](C)N(C)C1=O [CRV431] (cyclo(A[dA][NMeL][NMeL][NMeV][NMeThr(4R-Me,4-(CH2)6NHAc)][Abu][dNMeA][NMeL]V[NMeL])) .
Return: 1420

* * *

# Experimental system: OAT1 (Homo sapiens)
# Sequence (Q4U2R8 1-563): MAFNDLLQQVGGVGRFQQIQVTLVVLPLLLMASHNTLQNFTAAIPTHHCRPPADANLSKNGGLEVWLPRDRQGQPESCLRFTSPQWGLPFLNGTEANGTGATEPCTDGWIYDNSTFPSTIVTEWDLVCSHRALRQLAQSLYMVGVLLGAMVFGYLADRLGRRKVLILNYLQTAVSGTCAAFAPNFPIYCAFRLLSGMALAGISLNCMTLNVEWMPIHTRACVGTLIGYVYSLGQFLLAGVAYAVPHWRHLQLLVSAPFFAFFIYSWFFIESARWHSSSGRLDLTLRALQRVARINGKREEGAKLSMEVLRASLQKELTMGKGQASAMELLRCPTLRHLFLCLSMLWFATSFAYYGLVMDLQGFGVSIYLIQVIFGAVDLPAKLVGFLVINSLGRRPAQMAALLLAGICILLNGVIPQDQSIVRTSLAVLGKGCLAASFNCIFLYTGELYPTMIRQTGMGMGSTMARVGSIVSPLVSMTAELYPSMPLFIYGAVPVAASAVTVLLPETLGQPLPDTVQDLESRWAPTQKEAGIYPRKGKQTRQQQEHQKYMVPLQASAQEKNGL
# Test details: Drug transporter inhibition, OAT1
# Setup conditions: OAT1, HEK293
pIC50: −log10 of the molar value. Square brackets hold non-standard residues; d marks the D form. Peptide text beside a SMILES is read from it. NMeThr(4R-Me,4-(CH2)6NHAc) = CN[C@H](C(=O)O)[C@H](O)[C@H](C)CCCCCCNC(C)=O; NMeL = CN[C@@H](CC(C)C)C(=O)O; NMeV = CN[C@H](C(=O)O)C(C)C; dNMeA = CN[C@H](C)C(=O)O; Abu = CC[C@H](N)C(=O)O
Measurement type: pIC50

Enquiry: Return pIC50 (reported value) for this molecule: CC[C@@H]1NC(=O)[C@H]([C@H](O)[C@H](C)CCCCCCNC(C)=O)N(C)C(=O)[C@H](C(C)C)N(C)C(=O)[C@H](CC(C)C)N(C)C(=O)[C@H](CC(C)C)N(C)C(=O)[C@@H](C)NC(=O)[C@H](C)NC(=O)[C@H](CC(C)C)N(C)C(=O)[C@H](C(C)C)NC(=O)[C@H](CC(C)C)N(C)C(=O)[C@@H](C)N(C)C1=O [CRV431] (cyclo(A[dA][NMeL][NMeL][NMeV][NMeThr(4R-Me,4-(CH2)6NHAc)][Abu][dNMeA][NMeL]V[NMeL]))
Return: < 4.30

* * *

# Experimental system: OATP1B1 (Homo sapiens, UniProt Q9Y6L6)
# Sequence (Q9Y6L6 whole entry): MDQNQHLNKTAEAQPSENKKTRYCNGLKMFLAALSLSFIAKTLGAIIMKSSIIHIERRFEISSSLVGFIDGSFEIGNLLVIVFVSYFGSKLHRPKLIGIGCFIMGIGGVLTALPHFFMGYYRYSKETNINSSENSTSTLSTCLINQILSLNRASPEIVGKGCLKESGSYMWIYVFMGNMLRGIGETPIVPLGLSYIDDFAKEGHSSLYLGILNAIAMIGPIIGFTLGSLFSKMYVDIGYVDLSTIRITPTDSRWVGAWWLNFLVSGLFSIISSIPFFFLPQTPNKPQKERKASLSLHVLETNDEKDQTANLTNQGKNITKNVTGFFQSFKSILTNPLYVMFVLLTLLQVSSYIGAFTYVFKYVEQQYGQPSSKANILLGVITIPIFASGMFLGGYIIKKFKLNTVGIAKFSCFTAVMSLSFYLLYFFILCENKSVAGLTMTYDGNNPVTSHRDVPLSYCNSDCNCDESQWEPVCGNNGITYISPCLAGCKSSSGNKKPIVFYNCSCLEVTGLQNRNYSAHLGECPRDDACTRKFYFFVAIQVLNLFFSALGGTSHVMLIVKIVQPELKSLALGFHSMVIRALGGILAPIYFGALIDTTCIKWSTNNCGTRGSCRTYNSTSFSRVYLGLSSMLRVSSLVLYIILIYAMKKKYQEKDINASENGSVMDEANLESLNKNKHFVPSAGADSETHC
Square brackets hold non-standard residues; d marks the D form. Peptide text beside a SMILES is read from it. NMeThr(4R-Me,4-(CH2)6NHAc) = CN[C@H](C(=O)O)[C@H](O)[C@H](C)CCCCCCNC(C)=O; NMeL = CN[C@@H](CC(C)C)C(=O)O; NMeV = CN[C@H](C(=O)O)C(C)C; dNMeA = CN[C@H](C)C(=O)O; Abu = CC[C@H](N)C(=O)O
Measurement type: IC50 (nM)
Numbers only, in nM.

Enquiry: Return IC50 (reported value) for this compound: CC[C@@H]1NC(=O)[C@H]([C@H](O)[C@H](C)CCCCCCNC(C)=O)N(C)C(=O)[C@H](C(C)C)N(C)C(=O)[C@H](CC(C)C)N(C)C(=O)[C@H](CC(C)C)N(C)C(=O)[C@@H](C)NC(=O)[C@H](C)NC(=O)[C@H](CC(C)C)N(C)C(=O)[C@H](C(C)C)NC(=O)[C@H](CC(C)C)N(C)C(=O)[C@@H](C)N(C)C1=O [CRV431] (cyclo(A[dA][NMeL][NMeL][NMeV][NMeThr(4R-Me,4-(CH2)6NHAc)][Abu][dNMeA][NMeL]V[NMeL]))
Return: 300

* * *

# Experimental system: MRP2 (Homo sapiens)
# Sequence (Q92887 whole entry): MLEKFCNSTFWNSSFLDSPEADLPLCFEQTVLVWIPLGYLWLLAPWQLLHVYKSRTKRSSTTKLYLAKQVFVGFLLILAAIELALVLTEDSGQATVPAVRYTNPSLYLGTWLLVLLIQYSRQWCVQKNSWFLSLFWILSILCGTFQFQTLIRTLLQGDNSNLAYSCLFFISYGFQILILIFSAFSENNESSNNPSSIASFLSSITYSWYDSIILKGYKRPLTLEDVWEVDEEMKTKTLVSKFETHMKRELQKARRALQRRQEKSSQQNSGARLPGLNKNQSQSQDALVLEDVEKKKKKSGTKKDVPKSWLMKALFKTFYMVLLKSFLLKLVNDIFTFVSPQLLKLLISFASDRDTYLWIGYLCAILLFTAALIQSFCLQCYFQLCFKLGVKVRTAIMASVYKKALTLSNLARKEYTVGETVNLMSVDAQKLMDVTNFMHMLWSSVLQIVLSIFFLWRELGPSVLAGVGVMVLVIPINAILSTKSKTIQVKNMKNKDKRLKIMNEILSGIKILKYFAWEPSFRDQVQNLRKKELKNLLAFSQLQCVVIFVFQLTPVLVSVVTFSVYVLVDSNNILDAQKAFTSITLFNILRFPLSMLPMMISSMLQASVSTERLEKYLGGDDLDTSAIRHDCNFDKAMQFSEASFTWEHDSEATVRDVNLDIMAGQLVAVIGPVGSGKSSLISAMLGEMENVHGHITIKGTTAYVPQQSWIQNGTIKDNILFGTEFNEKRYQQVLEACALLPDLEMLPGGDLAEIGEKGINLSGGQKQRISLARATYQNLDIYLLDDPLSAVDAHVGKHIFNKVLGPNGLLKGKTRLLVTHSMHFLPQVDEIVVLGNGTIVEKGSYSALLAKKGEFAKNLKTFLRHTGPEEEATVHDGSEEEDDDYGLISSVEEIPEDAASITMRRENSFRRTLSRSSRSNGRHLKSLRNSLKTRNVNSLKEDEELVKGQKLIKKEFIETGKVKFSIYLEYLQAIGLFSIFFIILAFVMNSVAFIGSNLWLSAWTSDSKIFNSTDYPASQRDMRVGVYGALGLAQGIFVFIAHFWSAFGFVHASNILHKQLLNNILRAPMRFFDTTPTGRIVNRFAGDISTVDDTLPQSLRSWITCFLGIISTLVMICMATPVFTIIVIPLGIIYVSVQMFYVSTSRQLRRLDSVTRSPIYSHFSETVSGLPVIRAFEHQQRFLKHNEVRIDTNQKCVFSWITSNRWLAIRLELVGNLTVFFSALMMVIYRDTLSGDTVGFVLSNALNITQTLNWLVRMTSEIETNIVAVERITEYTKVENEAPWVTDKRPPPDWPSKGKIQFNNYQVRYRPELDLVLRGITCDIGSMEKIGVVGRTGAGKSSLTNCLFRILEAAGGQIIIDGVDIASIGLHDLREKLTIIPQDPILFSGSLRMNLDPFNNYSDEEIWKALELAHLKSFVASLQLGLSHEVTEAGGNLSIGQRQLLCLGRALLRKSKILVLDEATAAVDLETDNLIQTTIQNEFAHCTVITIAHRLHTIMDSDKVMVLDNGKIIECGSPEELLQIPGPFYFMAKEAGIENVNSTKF
Square brackets hold non-standard residues; d marks the D form. Peptide text beside a SMILES is read from it. NMeThr(4R-Me,4-(CH2)6NHAc) = CN[C@H](C(=O)O)[C@H](O)[C@H](C)CCCCCCNC(C)=O; NMeL = CN[C@@H](CC(C)C)C(=O)O; NMeV = CN[C@H](C(=O)O)C(C)C; dNMeA = CN[C@H](C)C(=O)O; Abu = CC[C@H](N)C(=O)O
Measurement type: pIC50
Answers are plain numbers, as −log10 of the molar value.

Enquiry: Return pIC50 (reported value) for this compound: CC[C@@H]1NC(=O)[C@H]([C@H](O)[C@H](C)CCCCCCNC(C)=O)N(C)C(=O)[C@H](C(C)C)N(C)C(=O)[C@H](CC(C)C)N(C)C(=O)[C@H](CC(C)C)N(C)C(=O)[C@@H](C)NC(=O)[C@H](C)NC(=O)[C@H](CC(C)C)N(C)C(=O)[C@H](C(C)C)NC(=O)[C@H](CC(C)C)N(C)C(=O)[C@@H](C)N(C)C1=O [CRV431] (cyclo(A[dA][NMeL][NMeL][NMeV][NMeThr(4R-Me,4-(CH2)6NHAc)][Abu][dNMeA][NMeL]V[NMeL]))
Return: 4.68

* * *

# Experimental system: OATP1B3 (Homo sapiens, UniProt Q9NPD5)
# Sequence (Q9NPD5 whole entry): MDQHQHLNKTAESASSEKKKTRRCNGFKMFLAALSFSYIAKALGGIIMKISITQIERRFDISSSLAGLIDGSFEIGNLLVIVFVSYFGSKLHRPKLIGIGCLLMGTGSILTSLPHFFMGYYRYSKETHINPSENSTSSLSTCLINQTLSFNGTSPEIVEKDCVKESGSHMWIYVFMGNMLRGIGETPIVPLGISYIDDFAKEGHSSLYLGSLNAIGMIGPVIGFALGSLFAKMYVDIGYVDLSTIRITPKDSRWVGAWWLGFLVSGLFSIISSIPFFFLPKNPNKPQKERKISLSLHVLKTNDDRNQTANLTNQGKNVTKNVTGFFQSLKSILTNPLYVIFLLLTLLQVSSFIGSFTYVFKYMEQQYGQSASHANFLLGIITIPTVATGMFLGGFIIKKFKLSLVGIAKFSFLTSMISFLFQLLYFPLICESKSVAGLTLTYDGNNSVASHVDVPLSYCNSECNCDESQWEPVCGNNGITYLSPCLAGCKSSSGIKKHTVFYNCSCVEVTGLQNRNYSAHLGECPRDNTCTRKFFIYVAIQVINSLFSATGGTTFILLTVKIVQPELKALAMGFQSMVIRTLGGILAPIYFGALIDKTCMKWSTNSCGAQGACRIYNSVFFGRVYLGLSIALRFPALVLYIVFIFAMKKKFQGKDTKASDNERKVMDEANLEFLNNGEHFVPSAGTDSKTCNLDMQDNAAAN
Square brackets hold non-standard residues; d marks the D form. Peptide text beside a SMILES is read from it. NMeThr(4R-Me,4-(CH2)6NHAc) = CN[C@H](C(=O)O)[C@H](O)[C@H](C)CCCCCCNC(C)=O; NMeL = CN[C@@H](CC(C)C)C(=O)O; NMeV = CN[C@H](C(=O)O)C(C)C; dNMeA = CN[C@H](C)C(=O)O; Abu = CC[C@H](N)C(=O)O
Measurement type: pIC50
Answers are plain numbers, as −log10 of the molar value.

Enquiry: Return pIC50 (reported value) for this compound: CC[C@@H]1NC(=O)[C@H]([C@H](O)[C@H](C)CCCCCCNC(C)=O)N(C)C(=O)[C@H](C(C)C)N(C)C(=O)[C@H](CC(C)C)N(C)C(=O)[C@H](CC(C)C)N(C)C(=O)[C@@H](C)NC(=O)[C@H](C)NC(=O)[C@H](CC(C)C)N(C)C(=O)[C@H](C(C)C)NC(=O)[C@H](CC(C)C)N(C)C(=O)[C@@H](C)N(C)C1=O [CRV431] (cyclo(A[dA][NMeL][NMeL][NMeV][NMeThr(4R-Me,4-(CH2)6NHAc)][Abu][dNMeA][NMeL]V[NMeL]))
Return: 6.22

* * *

# Experimental system: UniProt:O15244
# Sequence (O15244 whole entry): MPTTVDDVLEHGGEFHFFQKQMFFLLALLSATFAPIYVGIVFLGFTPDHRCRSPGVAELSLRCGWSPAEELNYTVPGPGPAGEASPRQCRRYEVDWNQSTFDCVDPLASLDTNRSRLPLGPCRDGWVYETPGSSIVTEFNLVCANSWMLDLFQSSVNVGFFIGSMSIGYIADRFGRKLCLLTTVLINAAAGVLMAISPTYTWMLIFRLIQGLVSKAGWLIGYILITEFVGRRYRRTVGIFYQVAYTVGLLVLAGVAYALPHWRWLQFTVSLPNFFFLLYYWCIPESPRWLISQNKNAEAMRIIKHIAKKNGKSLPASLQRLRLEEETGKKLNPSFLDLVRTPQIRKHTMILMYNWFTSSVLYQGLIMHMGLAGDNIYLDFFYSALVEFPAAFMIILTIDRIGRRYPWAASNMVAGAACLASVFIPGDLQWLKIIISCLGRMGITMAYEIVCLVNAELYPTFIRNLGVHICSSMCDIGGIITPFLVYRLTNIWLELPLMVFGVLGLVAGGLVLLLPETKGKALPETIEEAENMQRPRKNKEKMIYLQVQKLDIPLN
# Test details: Drug transporter inhibition, OCT2
# Setup conditions: OCT2, HEK293
pIC50: −log10 of the molar value. Square brackets hold non-standard residues; d marks the D form. Peptide text beside a SMILES is read from it. NMeThr(4R-Me,4-(CH2)6NHAc) = CN[C@H](C(=O)O)[C@H](O)[C@H](C)CCCCCCNC(C)=O; NMeL = CN[C@@H](CC(C)C)C(=O)O; NMeV = CN[C@H](C(=O)O)C(C)C; dNMeA = CN[C@H](C)C(=O)O; Abu = CC[C@H](N)C(=O)O
Measurement type: pIC50

Enquiry: Return pIC50 (reported value) for this compound: CC[C@@H]1NC(=O)[C@H]([C@H](O)[C@H](C)CCCCCCNC(C)=O)N(C)C(=O)[C@H](C(C)C)N(C)C(=O)[C@H](CC(C)C)N(C)C(=O)[C@H](CC(C)C)N(C)C(=O)[C@@H](C)NC(=O)[C@H](C)NC(=O)[C@H](CC(C)C)N(C)C(=O)[C@H](C(C)C)NC(=O)[C@H](CC(C)C)N(C)C(=O)[C@@H](C)N(C)C1=O [CRV431] (cyclo(A[dA][NMeL][NMeL][NMeV][NMeThr(4R-Me,4-(CH2)6NHAc)][Abu][dNMeA][NMeL]V[NMeL]))
Return: < 4.30
